# Tested on: V. cholerae SAD30
# Construct: SAD30
# Design: species or system S. aureus MSSA476 (TSB) or V. cholerae SAD30 (LB); 384-well bacterial growth screen at 25 uM, OD600 relative to DMSO control
# experimental-context: relative growth, OD600, LB; 25 µM; inhibitor
The campaign covered roughly 3,200 compounds. About 110 (3.4%) showed an effect of 50% or more. Many of the other results were omitted from the sample, so strong results are more common in it than they were.
Overview of reported % of control remaining across a group of molecules:
quantity-kind: % of control remaining (%)

{"molecule": "N#Cc1ccc2c(c1)CCN2C(=O)CCl [5-N09]", "experimental-result": 93.4748}
{"molecule": "N#Cc1cc([N+](=O)[O-])ccc1NC(=O)CCl [4-O09]", "experimental-result": 91.611}
{"molecule": "O=C(CCl)Cc1ccc(F)cc1Cl [10-E19]", "experimental-result": 21.0403}
{"molecule": "O=C(CCl)c1ccc2c(c1)CCN(C(=O)C(F)(F)F)C2 [10-E09]", "experimental-result": 98.6558}
{"molecule": "Cc1cc(C(=O)CCl)c(C)[nH]1 [10-J08]", "experimental-result": 99.1233}
{"molecule": "C=CC(=O)NC(CO)c1ccnn1C (centres unmarked) [2-D17]", "experimental-result": 92.203}
{"molecule": "CCOC=C(C#N)C(=O)N1CCN(S(=O)(=O)c2cc[nH]n2)CC1 [9-D06]", "experimental-result": 86.1319}
{"molecule": "C=CC(=O)N1CCCC(c2nc(N(C)C)no2)C1 (centres unmarked) [3-A13]", "experimental-result": 112.204}
{"molecule": "O=C(CCl)N1CCCCc2ccc([N+](=O)[O-])cc21 [5-I18]", "experimental-result": 94.3154}
{"molecule": "O=C(CCl)c1cc2c3c(c1)CC(=O)N3CCC2 [10-G16]", "experimental-result": 27.7421}
{"molecule": "N#CC(=Cc1cc([N+](=O)[O-])ccc1Cl)C(N)=O [8-F21]", "experimental-result": 76.0707}
{"molecule": "O=C(CCl)c1cc(Cl)sc1Cl [10-D16]", "experimental-result": 21.5079}
{"molecule": "C=CC(=O)NCc1nc2ccccc2n1C1CC1 [2-N03]", "experimental-result": 105.172}
{"molecule": "Cc1cc(C(=O)CCl)c(C)n1-c1cc(Cl)cc(Cl)c1 [10-I04]", "experimental-result": 87.746}
{"molecule": "CCS(=O)(=O)N1CCc2cc(C(=O)CCl)ccc21 [10-E18]", "experimental-result": 27.8979}
{"molecule": "O=CN1CCc2cc(C(=O)CCl)ccc21 [10-K20]", "experimental-result": 27.1186}
{"molecule": "O=C(CCl)NCCS(=O)(=O)N1CCc2ccccc21 [6-H04]", "experimental-result": 103.138}
{"molecule": "O=C(CCl)Cc1ccc(F)cc1F [10-G17]", "experimental-result": 31.4826}
{"molecule": "COc1ccc(-c2nn(-c3ccccc3)cc2C=C(C#N)C(N)=O)cc1 [8-L16]", "experimental-result": 71.7199}
{"molecule": "CS(=O)(=O)N1CCCc2cc(C(=O)CCl)ccc21 [10-H19]", "experimental-result": 22.9106}
{"molecule": "CCOC(=O)c1c(NC(=O)CCl)sc(C)c1C [4-O15]", "experimental-result": 102.998}
{"molecule": "C=CC(=O)N1CCC(C(=O)Oc2ccc(NC(C)=O)cc2)CC1 [3-M16]", "experimental-result": 96.1478}
{"molecule": "O=C(CCl)Nc1cc(C(F)(F)F)ccc1Cl [4-J04]", "experimental-result": 111.106}
{"molecule": "CC(Cl)C(=O)Nc1cc(C(F)(F)F)ccc1Cl (centres unmarked) [4-N15]", "experimental-result": 99.8922}
{"molecule": "Cc1cc(C(=O)CCl)c(C)s1 [10-K16]", "experimental-result": 28.6772}
{"molecule": "Cc1cc(=O)[nH]c(-c2cccc(NC(=O)C(C#N)=Cc3ccco3)c2)n1 [8-B10]", "experimental-result": 79.4697}
{"molecule": "O=C(CCl)Cc1ccc(Cl)cc1Cl [10-A15]", "experimental-result": 22.1313}
{"molecule": "C=CC(=O)N1CCCCC1c1nc2ccccc2n1C (centres unmarked) [3-F04]", "experimental-result": 96.3242}
{"molecule": "Cc1ccc(NC(=O)N2CCSSCC2)c(C)c1 [10-F11]", "experimental-result": 95.0711}
{"molecule": "C=CC(=O)N1CCC(C(=O)NCCC2(O)CCCOC2)CC1 (centres unmarked) [2-B04]", "experimental-result": 101.004}
{"molecule": "C=CC(=O)N1CCC(n2ncc3ccccc32)CC1 [1-K22]", "experimental-result": 95.6652}
{"molecule": "CC(Cl)C(=O)NC(C)(C)c1ccc(F)cc1F (centres unmarked) [6-E21]", "experimental-result": 92.9756}
{"molecule": "Cc1ccc(F)cc1NC(=O)CCl [4-O03]", "experimental-result": 106.103}
{"molecule": "Cc1ccc([N+](=O)[O-])cc1N1C(=O)C=CC1=O [10-O14]", "experimental-result": 26.6511}
{"molecule": "COCC(C)n1c(C)cc(C=C(C#N)C(=O)NS(C)(=O)=O)c1C (centres unmarked) [8-B04]", "experimental-result": 81.6451}
{"molecule": "C=CC(=O)Nc1ccc(Cl)cc1F [1-I10]", "experimental-result": 88.0419}
{"molecule": "C=CC(=O)NCc1c(Cl)c(C(F)(F)F)nn1C [2-J07]", "experimental-result": 87.88}
{"molecule": "N#CC(=Cc1ccccc1Cl)C(=O)Nc1cccc2ncccc12 [8-C15]", "experimental-result": 75.9347}
{"molecule": "CN(C)S(=O)(=O)c1cccc(NC(=O)CCl)c1 [4-J08]", "experimental-result": 94.3714}
{"molecule": "O=C1C=CC(=O)N1c1cc(C(F)(F)F)ccc1Cl [10-G09]", "experimental-result": 26.3394}
{"molecule": "CC(Cl)C(=O)N(CCc1ccc(F)cc1F)C(C)C (centres unmarked) [6-D18]", "experimental-result": 71.5897}
{"molecule": "CC(Cl)C(=O)NCCc1nc2cc(F)ccc2s1 (centres unmarked) [7-P11]", "experimental-result": 81.4142}
{"molecule": "O=C(CCl)c1c[nH]c(C(=O)N2CCCC2)c1 [10-A16]", "experimental-result": 108.475}
{"molecule": "O=C(CCl)Nc1c(Cl)cc(Cl)cc1Cl [5-B16]", "experimental-result": 98.3503}
{"molecule": "CCC(=O)N1CCc2cc(C(=O)CCl)ccc21 [10-C22]", "experimental-result": 119.54}
{"molecule": "COc1ccc(NC(=O)c2ccccc2NC(=O)CCl)cc1 [4-L05]", "experimental-result": 109.209}
{"molecule": "C=CC(=O)N1CCCn2cccc2C12CCOCC2 [1-A22]", "experimental-result": 107.922}
